Test: p53 small molecule agonists, cell-based qHTS assay (AID 1963582); note: % is set by controls: 0 for no effect and ±100 for the full control effect
Conditions: HCT-116 p53RE-bla reporter, beta-lactamase FRET ratio, 16 h; series mostly up to 66 µM
Records with an inconclusive call do not appear. Calls of active or inactive are those of the source. Calls come from the whole dose curve; as a rule, active = well fitted activation curve with a large enough effect in the signal ratio in the repeat runs (not every such curve was filed as active); inconclusive = weak or mixed curves; inactive = flat fitted curve, though single readings scatter; the % refers to the signal ratio.

>  <compound>
C[C@H]1O[C@H](O[C@H]2[C@H](O)[C@@H](O)[C@@H](O[C@H]3[C@H](O)[C@@H](O)[C@H](O)O[C@@H]3CO)O[C@@H]2CO)[C@H](O)[C@@H](O)[C@@H]1N[C@H]1C=C(CO)[C@@H](O)[C@H](O)[C@H]1O

>  <activation>
inactive

$$$$
>  <compound>
CCCCC(CC)CN (stereo not given)

>  <activation>
inactive

$$$$
>  <compound>
C[n+]1cc2c3c(ccc2c2ccc4cc5c(cc4c21)OCO5)OCO3

>  <activation>
-0.417% [at 13.5 µM] (inactive)

$$$$
>  <compound>
CN(C)CCc1c[nH]c2ccc(CS(=O)(=O)N3CCCC3)cc12

>  <activation>
inactive

$$$$
>  <compound>
CC(COC(C)(C)C)OCCCO (stereo not given)

>  <activation>
inactive

$$$$

---

Molecular target: Muscarinic acetylcholine receptor M1 (Homo sapiens) (UniProt P11229)
Sequence (P11229 whole entry, looked up): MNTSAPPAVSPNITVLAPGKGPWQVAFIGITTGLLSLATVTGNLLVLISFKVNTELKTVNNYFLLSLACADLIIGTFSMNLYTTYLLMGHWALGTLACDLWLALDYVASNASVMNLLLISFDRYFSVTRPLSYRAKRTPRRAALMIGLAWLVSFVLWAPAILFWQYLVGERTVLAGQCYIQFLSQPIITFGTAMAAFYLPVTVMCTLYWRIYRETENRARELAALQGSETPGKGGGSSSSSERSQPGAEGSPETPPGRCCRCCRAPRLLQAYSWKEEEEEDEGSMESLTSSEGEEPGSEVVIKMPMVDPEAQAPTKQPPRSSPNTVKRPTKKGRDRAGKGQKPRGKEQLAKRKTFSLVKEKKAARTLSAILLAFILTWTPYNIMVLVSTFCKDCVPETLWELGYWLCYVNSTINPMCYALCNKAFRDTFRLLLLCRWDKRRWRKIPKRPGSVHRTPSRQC
Test: Cholinergic receptor muscarinic 1 (CHRM1) small molecule antagonists, cell-based qHTS assay (AID 1963588); note: nearly all actives have a fitted effect of over 40% in size
Conditions: CHRM1-CHO antagonist mode, calcium flux fluorescence; series mostly up to 61.5 µM
Results filed as inconclusive are left out. The source made the active and inactive calls. Calls follow the shape of the full dose curve.
Outcome codes: Yes for active, No for inactive

>  <compound>
CC1CCC(C(C)CS)CC1S (configuration not stated)

>  <assayed system>
Muscarinic acetylcholine receptor M1 (Homo sapiens) (UniProt P11229)

>  <group>
No

$$$$
>  <compound>
O=C(O)c1snc(Cl)c1Cl

>  <assayed system>
Muscarinic acetylcholine receptor M1 (Homo sapiens) (UniProt P11229)

>  <group>
No

$$$$
>  <compound>
OC1CCCc2ccccc21 (configuration not stated)

>  <assayed system>
Muscarinic acetylcholine receptor M1 (Homo sapiens) (UniProt P11229)

>  <group>
No

$$$$
>  <compound>
CCOC(=O)c1cnc2c(cnn2CC)c1NN=C(C)C

>  <assayed system>
Muscarinic acetylcholine receptor M1 (Homo sapiens) (UniProt P11229)

>  <group>
No

$$$$
>  <compound>
COC[C@H](c1ccc(C(F)(F)F)cc1)N1CCN(C2(C)CCN(C(=O)c3c(C)ncnc3C)CC2)C[C@H]1C

>  <assayed system>
Muscarinic acetylcholine receptor M1 (Homo sapiens) (UniProt P11229)

>  <group>
Yes

$$$$
>  <compound>
CCCCCCCC[P+](CCCCCCCC)(CCCCCCCC)CCCCCCCC

>  <assayed system>
Muscarinic acetylcholine receptor M1 (Homo sapiens) (UniProt P11229)

>  <group>
No

$$$$
>  <compound>
Clc1cc(Cl)nc(Cl)n1

>  <assayed system>
Muscarinic acetylcholine receptor M1 (Homo sapiens) (UniProt P11229)

>  <group>
No

$$$$
>  <compound>
C[C@]12C=CC(=O)C=C1[C@@H](F)C[C@@H]1[C@@H]2[C@@H](O)C[C@@]2(C)[C@H]1CC[C@]2(O)C(=O)CO

>  <assayed system>
Muscarinic acetylcholine receptor M1 (Homo sapiens) (UniProt P11229)

>  <group>
No

$$$$
>  <compound>
CN1CCN(C2Cc3ccccc3Sc3ccc(Cl)cc32)CC1 (configuration not stated)

>  <assayed system>
Muscarinic acetylcholine receptor M1 (Homo sapiens) (UniProt P11229)

>  <group>
Yes

$$$$
>  <compound>
CC(=O)CC(C)C

>  <assayed system>
Muscarinic acetylcholine receptor M1 (Homo sapiens) (UniProt P11229)

>  <group>
No

$$$$
>  <compound>
CCCc1nc2c(C)cc(-c3nc4ccccc4n3C)cc2n1Cc1ccc(-c2ccccc2C(=O)O)cc1

>  <assayed system>
Muscarinic acetylcholine receptor M1 (Homo sapiens) (UniProt P11229)

>  <group>
No

$$$$
>  <compound>
CC1CCc2c(N3CCC(O)CC3)c(F)cc3c(=O)c(C(=O)O)cn1c23 (configuration not stated)

>  <assayed system>
Muscarinic acetylcholine receptor M1 (Homo sapiens) (UniProt P11229)

>  <group>
No

$$$$
>  <compound>
CN1CN(C)CN(C)C1

>  <assayed system>
Muscarinic acetylcholine receptor M1 (Homo sapiens) (UniProt P11229)

>  <group>
No

$$$$
>  <compound>
CN(C)CCN(C)CCN(C)C

>  <assayed system>
Muscarinic acetylcholine receptor M1 (Homo sapiens) (UniProt P11229)

>  <group>
No

$$$$
>  <compound>
CN(C)CCCOc1nn(Cc2ccccc2)c2ccccc12

>  <assayed system>
Muscarinic acetylcholine receptor M1 (Homo sapiens) (UniProt P11229)

>  <group>
No

$$$$
>  <compound>
Nc1ccc(S(=O)(=O)O)c(N)c1

>  <assayed system>
Muscarinic acetylcholine receptor M1 (Homo sapiens) (UniProt P11229)

>  <group>
No

$$$$
>  <compound>
CCO[Si](OCC)(OCC)OCC

>  <assayed system>
Muscarinic acetylcholine receptor M1 (Homo sapiens) (UniProt P11229)

>  <group>
No

$$$$
>  <compound>
CN(C)CCOC1=Cc2ccccc2Sc2ccc(Cl)cc21

>  <assayed system>
Muscarinic acetylcholine receptor M1 (Homo sapiens) (UniProt P11229)

>  <group>
No

$$$$
>  <compound>
C=CN1CCCCCC1=O

>  <assayed system>
Muscarinic acetylcholine receptor M1 (Homo sapiens) (UniProt P11229)

>  <group>
No

$$$$
>  <compound>
Oc1cccc2cc3cccc(O)c3c(O)c12

>  <assayed system>
Muscarinic acetylcholine receptor M1 (Homo sapiens) (UniProt P11229)

>  <group>
No

$$$$
>  <compound>
O=C(Nc1cccc2c(=O)cc(-c3nn[nH]n3)oc12)c1ccc(OCCCCc2ccccc2)cc1

>  <assayed system>
Muscarinic acetylcholine receptor M1 (Homo sapiens) (UniProt P11229)

>  <group>
No

$$$$
>  <compound>
N#Cc1c(F)cccc1F

>  <assayed system>
Muscarinic acetylcholine receptor M1 (Homo sapiens) (UniProt P11229)

>  <group>
No

$$$$
>  <compound>
COC(=O)c1cc(C(=O)OC)cc(S(=O)(=O)O)c1

>  <assayed system>
Muscarinic acetylcholine receptor M1 (Homo sapiens) (UniProt P11229)

>  <group>
No

$$$$
>  <compound>
CC1=CC[C@H](C(C)C)C=C1

>  <assayed system>
Muscarinic acetylcholine receptor M1 (Homo sapiens) (UniProt P11229)

>  <group>
No

$$$$
>  <compound>
CCOC(=O)N1CCC(Nc2ccc(Cl)cc2N)CC1

>  <assayed system>
Muscarinic acetylcholine receptor M1 (Homo sapiens) (UniProt P11229)

>  <group>
No

$$$$
>  <compound>
CCN(CC)C(=O)Nc1ccc(OCC(O)CNC(C)(C)C)c(C(C)=O)c1 (configuration not stated)

>  <assayed system>
Muscarinic acetylcholine receptor M1 (Homo sapiens) (UniProt P11229)

>  <group>
No

$$$$
>  <compound>
C/C(=N\[Si](C)(C)C)O[Si](C)(C)C

>  <assayed system>
Muscarinic acetylcholine receptor M1 (Homo sapiens) (UniProt P11229)

>  <group>
No

$$$$
>  <compound>
CCCCCC(=O)OCCc1ccccc1

>  <assayed system>
Muscarinic acetylcholine receptor M1 (Homo sapiens) (UniProt P11229)

>  <group>
No

$$$$
>  <compound>
CCc1cccc(C)c1N(C(=O)CS(=O)(=O)O)C(C)COC (configuration not stated)

>  <assayed system>
Muscarinic acetylcholine receptor M1 (Homo sapiens) (UniProt P11229)

>  <group>
No

$$$$
>  <compound>
O=S(=O)(O)c1ccc(N=Nc2c(O)ccc3ccccc23)cc1

>  <assayed system>
Muscarinic acetylcholine receptor M1 (Homo sapiens) (UniProt P11229)

>  <group>
No

$$$$
>  <compound>
C#CCN[C@@H]1CCc2ccccc21

>  <assayed system>
Muscarinic acetylcholine receptor M1 (Homo sapiens) (UniProt P11229)

>  <group>
No

$$$$
>  <compound>
CC(=O)OC(C)c1ccccc1 (configuration not stated)

>  <assayed system>
Muscarinic acetylcholine receptor M1 (Homo sapiens) (UniProt P11229)

>  <group>
No

$$$$
>  <compound>
Cc1cc(O)c(C(C)(C)C)cc1C(C)(C)C

>  <assayed system>
Muscarinic acetylcholine receptor M1 (Homo sapiens) (UniProt P11229)

>  <group>
No

$$$$
>  <compound>
Cn1c(=O)cc(Oc2ccc(F)cc2F)c2cnc(NCC(C)(C)O)nc21

>  <assayed system>
Muscarinic acetylcholine receptor M1 (Homo sapiens) (UniProt P11229)

>  <group>
No

$$$$
>  <compound>
COc1ccc(CN2CCN(C(c3ccc(F)cc3)c3ccc(F)cc3)CC2)c(OC)c1OC

>  <assayed system>
Muscarinic acetylcholine receptor M1 (Homo sapiens) (UniProt P11229)

>  <group>
Yes

$$$$
>  <compound>
Cc1c(C)c2c(c(C)c1OC(=O)CCC(=O)O)CC[C@@](C)(CCC[C@H](C)CCC[C@H](C)CCCC(C)C)O2

>  <assayed system>
Muscarinic acetylcholine receptor M1 (Homo sapiens) (UniProt P11229)

>  <group>
No

$$$$
>  <compound>
NC(=O)CC[C@@H](N)C(=O)O

>  <assayed system>
Muscarinic acetylcholine receptor M1 (Homo sapiens) (UniProt P11229)

>  <group>
No

$$$$
>  <compound>
CCOC(=O)/C=C/C(=O)O

>  <assayed system>
Muscarinic acetylcholine receptor M1 (Homo sapiens) (UniProt P11229)

>  <group>
No

$$$$
>  <compound>
CC(C)=CCCC(C)C=O (configuration not stated)

>  <assayed system>
Muscarinic acetylcholine receptor M1 (Homo sapiens) (UniProt P11229)

>  <group>
No

$$$$
>  <compound>
O=C(O)C(O)[C@H](O)[C@@H](O)[C@H](O)[C@H](O)CO (some centres not stated)

>  <assayed system>
Muscarinic acetylcholine receptor M1 (Homo sapiens) (UniProt P11229)

>  <group>
No

$$$$
>  <compound>
O=C(OOC(=O)c1ccccc1)c1ccccc1

>  <assayed system>
Muscarinic acetylcholine receptor M1 (Homo sapiens) (UniProt P11229)

>  <group>
No

$$$$
>  <compound>
CC1=C(CC=O)C(C)(C)CCC1

>  <assayed system>
Muscarinic acetylcholine receptor M1 (Homo sapiens) (UniProt P11229)

>  <group>
No

$$$$
>  <compound>
Cc1cccc(C)n1

>  <assayed system>
Muscarinic acetylcholine receptor M1 (Homo sapiens) (UniProt P11229)

>  <group>
No

$$$$
>  <compound>
CCCCOC(=O)CC

>  <assayed system>
Muscarinic acetylcholine receptor M1 (Homo sapiens) (UniProt P11229)

>  <group>
No

$$$$
>  <compound>
O=Cc1ccccc1[N+](=O)[O-]

>  <assayed system>
Muscarinic acetylcholine receptor M1 (Homo sapiens) (UniProt P11229)

>  <group>
No

$$$$
>  <compound>
CCc1ccc(O)c(OC)c1

>  <assayed system>
Muscarinic acetylcholine receptor M1 (Homo sapiens) (UniProt P11229)

>  <group>
No

$$$$
>  <compound>
COc1cc2c(cc1OC)CN(C(=O)[C@H](C)N[C@@H](CCc1ccccc1)C(=O)O)[C@H](C(=O)O)C2

>  <assayed system>
Muscarinic acetylcholine receptor M1 (Homo sapiens) (UniProt P11229)

>  <group>
No

$$$$
>  <compound>
CCCC(=O)OCOC(=O)C1=C(C)NC(C)=C(C(=O)OC)C1c1cccc(Cl)c1Cl (configuration not stated)

>  <assayed system>
Muscarinic acetylcholine receptor M1 (Homo sapiens) (UniProt P11229)

>  <group>
No

$$$$
>  <compound>
CC(C)(O)c1ccc(CNC(=O)c2cccnc2Oc2ccc3nonc3c2)cc1

>  <assayed system>
Muscarinic acetylcholine receptor M1 (Homo sapiens) (UniProt P11229)

>  <group>
No

$$$$
>  <compound>
C=CCn1c(=O)n(CC=C)c(=O)n(CC=C)c1=O

>  <assayed system>
Muscarinic acetylcholine receptor M1 (Homo sapiens) (UniProt P11229)

>  <group>
No

$$$$
>  <compound>
Cc1cccc2nccnc12

>  <assayed system>
Muscarinic acetylcholine receptor M1 (Homo sapiens) (UniProt P11229)

>  <group>
No

$$$$
>  <compound>
CC(C)OC(=O)c1cc2c(OCC(O)CNC(C)(C)C)cccc2[nH]1 (configuration not stated)

>  <assayed system>
Muscarinic acetylcholine receptor M1 (Homo sapiens) (UniProt P11229)

>  <group>
No

$$$$
